Target: human ether-à-go-go-related gene (hERG) potassium channel (human);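 note: peak tail current of the secondary pulse compared with the same well before compound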
Experiment: primary screen, population patch clamp on CHO cells stably expressing hERG; higher = less effect of the substance
In all, about 310,000 compounds went through this assay and about 14,000 (4.5%) showed an effect of 50% or more. The effect is printed as a negative number. The entries come from a sample that favours strong results as a whole.
I'd appreciate it if you could supply hERG current change (%, negative = inhibition) at 10uM values for the items below.
Answers are plain numbers, in %.

| molecule | study_system | assay_result |
| --- | --- | --- |
| COc1ccc(-c2csc(Nc3cccc(C)n3)n2)cc1C | human ether-à-go-go-related gene (hERG) potassium channel (human) | 5.87 |
| CN(C)S(=O)(=O)c1ccc(N2CCCC2)c(C(=O)Nc2nc(-c3cc(F)ccc3F)cs2)c1 | human ether-à-go-go-related gene (hERG) potassium channel (human) | 0.334 |
| CCOC(=O)N1CCC(N2Cc3cccc(C(=O)N4CCN(C5CCCCC5)CC4)c3C2=O)CC1 | human ether-à-go-go-related gene (hERG) potassium channel (human) | -62.4 |
| CCCN1CCC(NC(=O)Nc2cc(Cl)ccc2OC)CC1 | human ether-à-go-go-related gene (hERG) potassium channel (human) | -19.1 |
| Cc1cccc(/C=C/C(=O)c2cc(Br)ccc(=O)c2O)c1 | human ether-à-go-go-related gene (hERG) potassium channel (human) | 16.7 |
| CCOc1ccc(N(CC(=O)NCC2CCCO2)S(=O)(=O)c2ccc(C)cc2)cc1 (centres unmarked) | human ether-à-go-go-related gene (hERG) potassium channel (human) | -10.3 |
| CCc1cccc(CC)c1C(OC(C)=O)c1cccnc1 (centres unmarked) | human ether-à-go-go-related gene (hERG) potassium channel (human) | -0.238 |
| CC(NS(=O)(=O)c1ccc(OCC(=O)Nc2cccc([N+](=O)[O-])c2)cc1)c1ccccc1 (centres unmarked) | human ether-à-go-go-related gene (hERG) potassium channel (human) | 3.21 |
| O=C(O)c1ccccc1C(=O)N1CC=C(c2ccccc2)CC1 | human ether-à-go-go-related gene (hERG) potassium channel (human) | 3.44 |
| COc1ccccc1/C=C/CN1CCCC(CO)(Cc2cccc(Cl)c2)C1 (centres unmarked) | human ether-à-go-go-related gene (hERG) potassium channel (human) | -69.6 |

# batch: return hERG current change (%, negative = inhibition) at 10uM for each of the 8 molecules below
1. O=C(c1cc(-c2ccc(Cl)s2)nc2ccccc12)N1CCCC1
2. CN1C(=O)CC(c2ccccc2)C1=O (centres unmarked)
3. CCCN1Cc2cccc(C(=O)N3CCN(c4cc(Cl)ccc4C)CC3)c2C1=O
4. COC(=O)C1CN(C(=O)COc2ccc(Cl)cc2Cl)c2ccccc2O1 (centres unmarked)
5. CCOC(=O)N1CCC(N2Cc3cccc(C(=O)N4CC(C)CC(C)C4)c3C2=O)CC1 (centres unmarked)
6. O=C1NC(=Nc2ccccc2Cl)S/C1=C\c1cccc([N+](=O)[O-])c1
7. CC(=O)N1CCN(C(=O)c2cc(C)nc3ccccc23)CC1
8. CC(c1ccccc1)n1c(-c2ccccc2F)n[nH]c1=S (centres unmarked)

**A:**
1: 4.92; 2: 3.18; 3: -52.5; 4: -2.51; 5: 6.31; 6: -0.316; 7: 31.1; 8: -11.9

# batch: return hERG current change (%, negative = inhibition) at 10uM for each of the 2 molecules below
1. COc1ccc2nc(Nc3nc(CSc4nnnn4-c4ccccc4)cc(=O)[nH]3)nc(C)c2c1
2. O=C(O)c1ccc(/C=N/Nc2nc(N3CCCCC3)nc(N3CCCCC3)n2)cc1

**A:**
1. -42.1
2. 18.4

###

I'd appreciate it if you could supply hERG current change (%, negative = inhibition) at 10uM values for the items below.
Molecular target: human ether-à-go-go-related gene (hERG) potassium channel (human, UniProt Q12809);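 note: peak tail current of the secondary pulse compared with the same well before compound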
Sequence (Q12809 whole entry, looked up): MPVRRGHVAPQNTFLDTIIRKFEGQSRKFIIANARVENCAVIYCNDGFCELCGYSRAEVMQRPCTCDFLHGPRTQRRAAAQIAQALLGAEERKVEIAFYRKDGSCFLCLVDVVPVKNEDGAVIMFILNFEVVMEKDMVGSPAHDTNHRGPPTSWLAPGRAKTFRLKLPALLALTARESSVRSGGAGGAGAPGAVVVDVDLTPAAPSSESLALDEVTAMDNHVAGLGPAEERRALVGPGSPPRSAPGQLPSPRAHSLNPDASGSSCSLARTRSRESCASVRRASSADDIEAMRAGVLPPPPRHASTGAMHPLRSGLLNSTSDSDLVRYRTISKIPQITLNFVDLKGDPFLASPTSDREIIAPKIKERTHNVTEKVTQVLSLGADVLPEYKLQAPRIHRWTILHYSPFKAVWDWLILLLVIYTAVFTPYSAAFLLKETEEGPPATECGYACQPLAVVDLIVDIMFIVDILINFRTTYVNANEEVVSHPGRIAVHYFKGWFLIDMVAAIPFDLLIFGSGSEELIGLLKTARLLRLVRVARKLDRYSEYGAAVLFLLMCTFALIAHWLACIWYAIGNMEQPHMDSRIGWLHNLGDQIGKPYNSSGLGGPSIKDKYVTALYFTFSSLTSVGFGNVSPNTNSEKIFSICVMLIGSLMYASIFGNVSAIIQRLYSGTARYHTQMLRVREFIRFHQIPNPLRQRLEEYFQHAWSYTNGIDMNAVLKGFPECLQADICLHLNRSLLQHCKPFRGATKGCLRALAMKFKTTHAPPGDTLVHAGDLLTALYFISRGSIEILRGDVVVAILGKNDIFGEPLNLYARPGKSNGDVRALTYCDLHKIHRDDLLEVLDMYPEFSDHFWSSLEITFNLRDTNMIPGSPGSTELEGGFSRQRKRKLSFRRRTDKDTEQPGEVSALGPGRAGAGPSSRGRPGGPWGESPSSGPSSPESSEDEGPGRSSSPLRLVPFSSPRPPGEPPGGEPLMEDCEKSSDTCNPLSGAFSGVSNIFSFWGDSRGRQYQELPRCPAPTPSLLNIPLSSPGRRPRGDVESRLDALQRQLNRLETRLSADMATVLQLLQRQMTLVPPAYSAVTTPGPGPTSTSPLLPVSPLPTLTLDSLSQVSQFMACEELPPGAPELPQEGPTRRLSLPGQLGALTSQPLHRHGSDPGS
Assay: primary screen, population patch clamp on CHO cells stably expressing hERG; higher = less effect of the substance
In all, about 310,000 compounds went through this assay and about 14,000 (4.5%) showed an effect of 50% or more. Effects have a minus sign here. For the sample, strong results were picked, then their nearest neighbours and some compounds at random.
Answers are plain numbers, in %.

| compound | study_system | assay_result |
| --- | --- | --- |
| Cc1cc(C)c(C)c(S(=O)(=O)N2CCC(C(=O)Nc3ccccc3N3CCOCC3)CC2)c1C | human ether-à-go-go-related gene (hERG) potassium channel (human, UniProt Q12809) | -8.54 |

# batch: return hERG current change (%, negative = inhibition) at 10uM for each of the 6 compounds below
1. COc1cccc(OC)c1C(=O)Nc1cc(C)on1
2. CN(C)CCNC(=O)c1ccc(CS(=O)(=O)c2ccc(Br)cc2)o1
3. CC(CN1CCCC1)OC(=O)c1ccc(F)cc1.Cl (stereo not drawn)
4. CN(CC(O)CN)CC(O)CN1CCCCC1.Cl (stereo not drawn)
5. O=C(NCCN1CCCC1)c1ccc(CS(=O)(=O)c2c(Cl)cccc2Cl)o1
6. O=C(CN1C(=O)NC2(CCc3ccccc32)C1=O)NCC(F)(F)F (stereo not drawn)

**A:**
1: 7.22; 2: -3.14; 3: -10.1; 4: 4.64; 5: -45.5; 6: 2.18

# batch: return hERG current change (%, negative = inhibition) at 10uM for each of the 4 compounds below
1. CCN1CCN(CCNC(=O)c2ccc(CS(=O)(=O)c3c(Cl)cccc3Cl)o2)CC1
2. O=C1CC(c2ccccc2)CC(O)=C1C=NCCN1CCN(Cc2ccccc2)CC1 (stereo not drawn)
3. O=C1CC(c2ccccc2)CC(O)=C1C=NCCN1CCN(C(=O)Cc2ccccc2)CC1 (stereo not drawn)
4. O=C1CC(c2ccccc2)CC(O)=C1C=NCCN1CCOCC1 (stereo not drawn)

**A:**
1: -8.19; 2: -63.1; 3: -53; 4: -0.797

# batch: return hERG current change (%, negative = inhibition) at 10uM for each of the 2 compounds below
1. O=C(NCCC1=CCCCC1)c1cc(-c2ccncc2)nc2ccccc12
2. COc1cc(C2(c3ccc(O)c(OC)c3)C(=O)N(C)c3ccc(Br)cc32)ccc1O

**A:**
1. 6.78
2. -52.6

# batch: return hERG current change (%, negative = inhibition) at 10uM for each of the 4 compounds below
1. O=C1CCN(Cc2ccc(Br)cc2)CCN1CCO
2. CN(CCNC(=O)c1ccc(CS(=O)(=O)c2c(Cl)cccc2Cl)o1)CCc1ccccc1
3. COC(CNC(=O)c1ccc(CS(=O)(=O)c2c(Cl)cccc2Cl)o1)OC
4. CC(C)N1CCC(N2CCN(C3CCCCC3)CC2CCO)CC1 (stereo not drawn)

**A:**
1: -1.08; 2: -70; 3: 21.2; 4: 18.9

###

I'd appreciate it if you could supply hERG current change (%, negative = inhibition) at 10uM values for the items below.
Biological target: human ether-à-go-go-related gene (hERG) potassium channel (human);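 note: peak tail current of the secondary pulse compared with the same well before compound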
Test: primary screen, population patch clamp on CHO cells stably expressing hERG; higher = less effect of the substance
The campaign covered roughly 310,000 compounds. About 14,000 (4.5%) showed an effect of 50% or more. Effects have a minus sign here. The sample as a whole holds a higher share of strong results than the screen did.
Numbers only, in %.

| molecule | units | assay_result |
| --- | --- | --- |
| N/C(=N\O)c1ccc(Oc2ccccc2Cl)c([N+](=O)[O-])c1 | % | -9.72 |
| CCOc1ccc(S(=O)(=O)Nc2cccc(C(=O)NCC3(N4CCCCC4)CCCCC3)c2)cc1 | % | -71.6 |
| Cc1oc(-c2ccc(Cl)cc2)nc1CN1CCC(C(=O)NCC2CCCO2)CC1 (stereo not shown) | % | -70.1 |
| O=C(O)c1cccc(-n2c(-c3cnccn3)n[nH]c2=S)c1 | % | 20.4 |

# batch: return hERG current change (%, negative = inhibition) at 10uM for each of the 8 molecules below
1. Cc1cc(-c2nnc(CCC(=O)NCc3ccc(OC(F)(F)F)cc3)o2)no1
2. c1ccc(Cn2c(SCc3nc4ccccc4s3)nnc2-c2ccco2)cc1
3. CCOc1cccc(OCCOCCNC(C)(C)C)c1.O=C(O)C(=O)O
4. CCC(C)(C)C1CCc2c(sc(NC(=O)c3ccccc3C(=O)O)c2C#N)C1 (stereo not shown)
5. O=C1C=C(NCc2ccncc2)CC(c2ccccc2)C1 (stereo not shown)
6. CC(C)CCNC1=CC(=O)CC(c2ccccc2)C1 (stereo not shown)
7. COc1ccc(C2CC(=O)C=C(NCc3ccc4c(c3)OCO4)C2)cc1 (stereo not shown)
8. O=C1C=C(c2ccccc2)C[C@@H](c2ccc3c(c2)OCO3)C1

**A:**
[3.05, -34.1, 3.71, 10.3, -70.7, -33.2, -73.1, -4.15]

###

I'd appreciate it if you could supply hERG current change (%, negative = inhibition) at 10uM values for the items below.
Biological target: human ether-à-go-go-related gene (hERG) potassium channel (human, UniProt Q12809);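 note: peak tail current of the secondary pulse compared with the same well before compound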
Test: primary screen, population patch clamp on CHO cells stably expressing hERG; higher = less effect of the substance
Among all 310,000 compounds or so, about 14,000 (4.5%) showed an effect of 50% or more. Effects have a minus sign here. The sample as a whole holds a higher share of strong results than the screen did.
Give bare numbers, in %.

# batch: return hERG current change (%, negative = inhibition) at 10uM for each of the 5 molecules below
1. Cl.N=c1sccn1CC(=O)Nc1ccc(SC(F)F)cc1
2. O=C(CSc1ccccc1)Nc1cc(Cl)ccc1Oc1ccccc1
3. Cl.N=c1sccn1CC(=O)Nc1cccc(S(N)(=O)=O)c1
4. Cl.N=c1sccn1CC(=O)Nc1cc(Cl)ccc1[N+](=O)[O-]
5. COc1ccc(N/C=C/C(=O)c2cc(OC)c(OC)c(OC)c2)cc1

**A:**
[-62.1, -9.05, 12.5, 2.64, -8.76]
